Ref: PubChem BioAssay AID1159580

- Experimental details: chemical genetic growth profiling, strain panel (AID 1159580);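 note: tested at 20 µM; growth read once vehicle control cultures reached saturation at 30 °C; 1 = growth at the plate median or of vehicle wells; lower values mean less growth of the strain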
- Conditions used: S. cerevisiae deletion strains, growth OD, locus YMR058W, strain fet3, hits give low values
Among all 5,500 compounds or so, about 2,000 (36%) were called active. About 18% were inconclusive and are not listed. This is one part of the list.

Molecule	normalized growth
CC1(C)O[C@H]2CC(=O)OC[C@]23[C@H]2CC[C@@]4(C)[C@H](c5ccoc5)OC(=O)[C@H]5O[C@]54[C@]2(C)C(=O)C[C@@H]13	0.974
COc1cc(OC)c2ccc(=O)oc2c1	0.957
COc1ccc2ccc(=O)oc2c1	0.98
O=C(O)C1=C[C@@H](O)[C@@H](O)[C@H](O)C1	0.973
CC1(C)C(=O)C=C[C@@]2(C)C1C=C[C@]1(C)C2CC[C@@]2(C)[C@H](c3ccoc3)OC(=O)C3OC321 (stereo not given in full)	0.976

---

- Experimental details: chemical genetic growth profiling, strain panel (AID 1159580)
- Conditions used: S. cerevisiae deletion strains, growth OD, locus YOR001W, strain rrp6
Hit rate of the full screen: of about 5,500 compounds, about 2,000 (36%) were called active. Roughly 18% stayed inconclusive and do not appear here. Rule as the data show it: active = normalized growth mostly below about 0.91 (no sharp cut-off); inconclusive = no clear call, values can overlap the other calls; inactive = mostly above about 0.92. This is one part of the list.
Labels: label 1 = active, label 0 = inactive

Compound	Qualitative label
CN(C)c1ccc2nc3ccc(=[N+](C)C)cc-3sc2c1	label 0
CCOCN(C(=O)CCl)c1c(C)cccc1CC	label 0
NS(=O)(=O)c1cc(C2(O)NC(=O)c3ccccc32)ccc1Cl (configuration not stated)	label 0
COc1cc(OC)c2ccc(=O)oc2c1	label 0
O=c1c(O)c(-c2ccc(O)c(O)c2)oc2c(O)c(O)cc(O)c12	label 0
COc1cc2occc2c2oc(=O)ccc12	label 0
COc1ccc2ccc(=O)oc2c1	label 0
COc1ccc(Cl)cc1C(=O)NCCc1ccc(S(=O)(=O)NC(=O)NC2CCCCC2)cc1	label 0
COc1ccccc1/C=C\C(=O)O	label 0
C=CC1C2=CCOC(=O)C2=COC1OC1OC(CO)C(O)C(O)C1O (configuration not stated)	label 0
O=C(Cc1cccs1)NC1C(=O)N2C(C(=O)[O-])=C(C[n+]3ccccc3)CSC12 (configuration not stated)	label 0
C[N+](C)(C)CC(O)CC(=O)O (configuration not stated)	label 0
O=c1ccc2c(O)c3ccoc3cc2o1	label 0
CC[n+]1c(-c2ccccc2)c2cc(N)ccc2c2ccc(N)cc21	label 1
N#Cc1nn(-c2c(Cl)cc(C(F)(F)F)cc2Cl)c(N)c1S(=O)C(F)(F)F (configuration not stated)	label 0
CC(C1OC(C)(C)C(O)C1O)[C@@H]1CC[C@]2(C)C3=CCC4C(C)(C)C(=O)CC[C@]4(C)C3CC[C@@]12C (some centres not stated)	label 0
COc1ccc2c(c1)CCC1C2CCC2(C)C1C[C@@H](O)C2O (some centres not stated)	label 0
CNC(=O)Oc1cccc2c1OC(C)(C)O2	label 0
CCC1OC(=O)[C@H](C)C(=O)[C@H](C)[C@@H](OC2O[C@H](C)C[C@H](N(C)C)[C@H]2O)[C@](C)(OC)C2(CCCn3cnc(-c4cccnc4)c3)C[C@@H](C)C(=O)[C@H](C)[C@H]3N(C2)C(=O)O[C@]13C (some centres not stated)	label 0
C[C@]12CCC3c4ccc(O)cc4CCC3C1CC[C@@H]2O (some centres not stated)	label 0
CO[C@@]1(NC(=O)C(C(=O)O)c2ccc(O)cc2)C(=O)N2C(C(=O)O)=C(CSc3nnnn3C)CO[C@@H]21 (some centres not stated)	label 0
COc1c2ccoc2cc2oc(=O)ccc12	label 1

---

- Experimental details: chemical genetic growth profiling, strain panel (AID 1159580);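 note: tested at 20 µM; growth read once vehicle control cultures reached saturation at 30 °C; 1 = growth at the plate median or of vehicle wells; lower values mean less growth of the strain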
- Conditions used: S. cerevisiae deletion strains, growth OD, locus YDL108W, strain KIN28, hits give low values
Screen size: about 5,500 compounds; about 2,000 (36%) were called active. Inconclusive results (about 18%) are left out. Some of the results follow.

Compound	normalized growth
CCCCNC(=S)N/N=C\c1cc(Cl)cc(Cl)c1O	0.922
COCCCNC(=S)N/N=C\c1cc(Cl)cc(Cl)c1O	0.961
CCOC(=O)N/N=C\c1cc(Cl)cc(Cl)c1O	0.935
O=C(Nc1ccccc1)Nc1ccc(Cl)cc1[N+](=O)[O-]	0.988
O=C1Nc2ccccc2/C1=C\c1cccc([N+](=O)[O-])c1	0.968
O=C1Nc2ccccc2/C1=C\c1ccc(Cl)cc1	0.948
Cc1cc(Oc2ccc(C(F)(F)F)cc2NS(C)(=O)=O)cc(C)c1Cl	0.995
O=[N+]([O-])c1cc(Cl)cc([N+](=O)[O-])c1Nc1ccccc1	0.935
COCCCNC(=S)N/N=C\c1cc(Br)ccc1O	0.97
CN(C)C=Nc1nnc(Sc2nc3c(Cl)cc(Cl)cc3s2)s1	0.976
Cc1nnc2n1N=C(c1ccc(CC(C)C)cc1)C(C)S2 (configuration not stated)	0.97
O=C1Nc2ccccc2/C1=C/c1ccc(C(F)(F)F)cc1Cl	0.974

---

- Experimental details: chemical genetic growth profiling, strain panel (AID 1159580);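 note: tested at 20 µM; growth read once vehicle control cultures reached saturation at 30 °C; 1 = growth at the plate median or of vehicle wells; lower values mean less growth of the strain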
- Conditions used: S. cerevisiae deletion strains, growth OD, locus YOL012C, strain htz1
Among all 5,500 compounds or so, about 2,000 (36%) were called active. Roughly 18% stayed inconclusive and do not appear here. Some of the results follow.
Measured attribute: normalized growth

Molecule	Assay result
COc1ccc(-c2cc(=O)c3c(O)cc(O[C@H]4O[C@H](CO[C@@H]5O[C@@H](C)[C@H](O)[C@@H](O)[C@H]5O)[C@@H](O)[C@H](O)[C@H]4O)cc3o2)cc1	1.14
C[C@]12CCC3c4ccc(O)cc4CCC3C1CC[C@@H]2O (some centres not stated)	1.8
CCOC(=O)NC1=C(C2CC2)C(=O)C(NC(=O)OCC)=C(C2CC2)C1=O	1.15
CCC(N)C(O)c1ccc(O)c(O)c1 (configuration not stated)	0.91
CCCCCc1c2c(cc(O)c1C(=O)O)OC(=O)c1c(cc(OC)cc1C(=O)CCCC)O2	1.1
C=C(C)[C@H]1COc2cc3oc(=O)ccc3cc2O1	0.694
CC(=O)[C@@]1(O)CCC2C3C[C@H](C)C4=CC(=O)C=CC4(C)[C@@]3(F)[C@@H](O)C[C@@]21C (some centres not stated)	0.807
CC/C(=C(/CC)c1ccc(O)cc1)c1ccc(O)cc1	1.4
NC(CSCSCC(N)C(=O)O)C(=O)O (configuration not stated)	0.928
O=C(Cc1cccs1)NC1C(=O)N2C(C(=O)[O-])=C(C[n+]3ccccc3)CSC12 (configuration not stated)	0.724
CC(=O)OCC1=C(C(=O)O)N2C(=O)[C@@H](NC(=O)Cc3cccs3)[C@H]2SC1	0.756
COc1cc(O)c2c(=O)c(O)c(-c3ccc(O)c(O)c3)oc2c1	0.669
CCC(c1ccc(O)cc1)C(CC)c1ccc(O)cc1 (configuration not stated)	1.31
CN[C@@H]1C(O)[C@@H](O[C@@H]2[C@@H](O)[C@H](O[C@H]3OC(CN)=CC[C@H]3N)[C@@H](N)C[C@H]2N)OC[C@]1(C)O (some centres not stated)	2.02
CC(C)C1COc2cc3oc(=O)ccc3cc2O1 (configuration not stated)	0.681
CC(=O)OC1CN2CCC1CC2 (configuration not stated)	1.28
CC(C)(C)NCC(O)c1cc(Cl)c(N)c(Cl)c1 (configuration not stated)	1.23
NC(=O)NCCCC(N)C(=O)O (configuration not stated)	1.42
CCCCOc1cc(C(=O)NCCN(CC)CC)c2ccccc2n1	0.896
O=C1C=C2C(=CCOC2O)O1 (configuration not stated)	0.714
COc1cc(OC)c2c(=O)c(O)c(-c3ccc(OC)c(OC)c3)oc2c1	0.232
Cc1[nH]ccc2c1[nH]c1cc(=O)ccc12	0.948

---

- Experimental details: chemical genetic growth profiling, strain panel (AID 1159580);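 note: tested at 20 µM; growth read once vehicle control cultures reached saturation at 30 °C; 1 = growth at the plate median or of vehicle wells; lower values mean less growth of the strain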
- Conditions used: S. cerevisiae deletion strains, growth OD, locus YJL134W, strain LCB3, hits give low values
The campaign covered roughly 5,500 compounds. About 2,000 (36%) were called active. About 18% were inconclusive and are not listed. The list shows a part of the results.
normalized growth by entry:

Molecule	normalized growth
CC(=O)OC(C)C[N+](C)(C)C (stereo unspecified)	1.01
COc1ccc(-c2oc3c(CC=C(C)C)c(O[C@@H]4O[C@H](CO)[C@@H](O)[C@H](O)[C@H]4O)cc(O)c3c(=O)c2O[C@@H]2O[C@@H](C)[C@H](O)[C@@H](O)[C@H]2O)cc1	1.01
CCOCN(C(=O)CCl)c1c(C)cccc1CC	0.987
COc1ccc(-c2cc(=O)c3c(O)cc(O[C@H]4O[C@H](CO[C@@H]5O[C@@H](C)[C@H](O)[C@@H](O)[C@H]5O)[C@@H](O)[C@H](O)[C@H]4O)cc3o2)cc1	0.994
COc1ccccc1/C=C\C(=O)O	1.01
Cc1ccccc1OCC(O)CO (stereo unspecified)	1.01
O=c1c(O)c(-c2cc(O)c(O)c(O)c2)oc2cc(O)cc(O)c12	1
C[C@@H]1O[C@@H](OC[C@H]2OC(Oc3c(-c4ccc(OCCO)c(OCCO)c4)oc4cc(OCCO)cc(O)c4c3=O)[C@H](O)[C@@H](O)[C@@H]2O)[C@H](O)[C@H](O)[C@H]1O (stereo partly specified)	0.99
CC1(C)C(=O)C=C[C@@]2(C)C1CC(=O)[C@]1(C)C2CC[C@@]2(C)[C@H](c3ccoc3)OC(=O)[C@H]3O[C@]321 (stereo partly specified)	0.986
CC(=O)O[C@@H]1CC(=O)[C@@]2(C)C(CC(=O)[C@]3(C)C2CC[C@@]2(C)[C@H](c4ccoc4)OC(=O)C4OC423)C1(C)C (stereo partly specified)	0.999
C[N+](C)(C)CC(O)CC(=O)O (stereo unspecified)	1
CC1(C)C(=O)C=C[C@@]2(C)C1C[C@@H](O)[C@]1(C)C2CC[C@@]2(C)[C@H](c3ccoc3)OC(=O)[C@H]3O[C@]321 (stereo partly specified)	0.98
CC1(C)O[C@H]2CC(=O)OC[C@]23[C@H]2CC[C@@]4(C)[C@H](c5ccoc5)OC(=O)[C@H]5O[C@]54[C@]2(C)C(=O)C[C@@H]13	1
CC1(C)C2CC(=O)[C@]3(C)C(CC[C@@]4(C)[C@H](c5ccoc5)OC(=O)[C@H]5O[C@]543)[C@@]2(C)C(=O)C[C@H]1O (stereo partly specified)	0.999
CCCCCCCCCCCCCCCCCC(=O)OC(CC(=O)O)C[N+](C)(C)C (stereo unspecified)	1.01
CC1(C)C=CC(=O)[C@@]2(C)C1CC(=O)[C@]1(C)C2CC[C@@]2(C)[C@H](c3ccoc3)OC(=O)C3OC321 (stereo partly specified)	0.975
